- ASSAY_TARGET: Receptor tyrosine-protein kinase erbB-4 (Homo sapiens)
- EXPERIMENTAL_PROTOCOL: Inhibition of ErbB4 expressed in Escherichia coli or baculovirus-infected insect cells at 400 to 667 uM by TR-FRET assay
PROPERTY_NAME: inhibition (%)

Before answering, review these 3 worked examples.
[[record]]
molecule = "Nc1ccc2ncc(-c3ccccc3)n2n1"
property_name = "inhibition"
recorded_value = 47

[[record]]
molecule = "Cc1ccc(NC(=O)Nc2cccc(C(F)(F)F)c2)cc1"
property_name = "inhibition"
recorded_value = 0

[[record]]
molecule = "O=C(Nc1ccccc1)Nc1ccccc1"
property_name = "inhibition"
recorded_value = 0


[A] Nc1n[nH]c2ncccc12
[B] Nc1[nH]cnc2ncnc1-2
### Prompt Of A and B , which carries the smaller reported inhibition figure? Answer by quoting the chosen item's label.
### Response B

----------
- ASSAY_TARGET: Serine/threonine-protein kinase PAK 1 (Homo sapiens) (UniProt Q13153)
- Sequence (Q13153 whole entry): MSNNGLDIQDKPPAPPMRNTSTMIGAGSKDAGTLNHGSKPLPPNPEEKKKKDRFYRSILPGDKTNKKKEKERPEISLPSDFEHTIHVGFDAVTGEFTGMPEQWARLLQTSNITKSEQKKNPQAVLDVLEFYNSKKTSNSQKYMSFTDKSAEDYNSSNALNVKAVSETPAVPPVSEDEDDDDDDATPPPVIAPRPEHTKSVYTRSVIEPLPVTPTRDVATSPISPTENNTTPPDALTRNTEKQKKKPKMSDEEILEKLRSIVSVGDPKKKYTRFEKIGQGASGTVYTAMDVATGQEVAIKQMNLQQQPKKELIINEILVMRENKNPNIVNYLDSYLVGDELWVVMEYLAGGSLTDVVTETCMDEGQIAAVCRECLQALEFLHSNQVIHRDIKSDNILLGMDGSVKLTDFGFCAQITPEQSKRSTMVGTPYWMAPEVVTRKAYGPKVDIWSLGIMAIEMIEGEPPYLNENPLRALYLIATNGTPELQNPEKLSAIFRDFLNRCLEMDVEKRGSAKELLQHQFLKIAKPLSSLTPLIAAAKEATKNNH
- EXPERIMENTAL_PROTOCOL: Inhibition of PAK1 expressed in Escherichia coli or baculovirus-infected insect cells at 400 uM by IMAP assay
PROPERTY_NAME: inhibition (%)

[A] c1n[nH]c2c1CCCC2
[B] c1ccc(Nc2ccccc2)cc1
### Prompt Sorting by inhibition in descending order, would A or B appear first? Answer by quoting the chosen item's label.
### Response B

[P] c1ccc(Nc2ncccn2)cc1
[Q] c1ccc(-c2cnc3nccnn23)cc1
### Prompt Sorting by inhibition in descending order, would P or Q appear first? Answer by quoting the chosen item's label.
### Response P
(P: 19%, Q: 0%)

[P] Nc1[nH]nc2ccccc12
[Q] Nc1ccc2ncc(-c3ccccc3)n2n1
### Prompt Sorting by inhibition in descending order, would P or Q appear first? Answer by quoting the chosen item's label.
### Response Q

----------
- ASSAY_TARGET: UniProt Q05397
- Sequence (Q05397 2-1052 limits assumed): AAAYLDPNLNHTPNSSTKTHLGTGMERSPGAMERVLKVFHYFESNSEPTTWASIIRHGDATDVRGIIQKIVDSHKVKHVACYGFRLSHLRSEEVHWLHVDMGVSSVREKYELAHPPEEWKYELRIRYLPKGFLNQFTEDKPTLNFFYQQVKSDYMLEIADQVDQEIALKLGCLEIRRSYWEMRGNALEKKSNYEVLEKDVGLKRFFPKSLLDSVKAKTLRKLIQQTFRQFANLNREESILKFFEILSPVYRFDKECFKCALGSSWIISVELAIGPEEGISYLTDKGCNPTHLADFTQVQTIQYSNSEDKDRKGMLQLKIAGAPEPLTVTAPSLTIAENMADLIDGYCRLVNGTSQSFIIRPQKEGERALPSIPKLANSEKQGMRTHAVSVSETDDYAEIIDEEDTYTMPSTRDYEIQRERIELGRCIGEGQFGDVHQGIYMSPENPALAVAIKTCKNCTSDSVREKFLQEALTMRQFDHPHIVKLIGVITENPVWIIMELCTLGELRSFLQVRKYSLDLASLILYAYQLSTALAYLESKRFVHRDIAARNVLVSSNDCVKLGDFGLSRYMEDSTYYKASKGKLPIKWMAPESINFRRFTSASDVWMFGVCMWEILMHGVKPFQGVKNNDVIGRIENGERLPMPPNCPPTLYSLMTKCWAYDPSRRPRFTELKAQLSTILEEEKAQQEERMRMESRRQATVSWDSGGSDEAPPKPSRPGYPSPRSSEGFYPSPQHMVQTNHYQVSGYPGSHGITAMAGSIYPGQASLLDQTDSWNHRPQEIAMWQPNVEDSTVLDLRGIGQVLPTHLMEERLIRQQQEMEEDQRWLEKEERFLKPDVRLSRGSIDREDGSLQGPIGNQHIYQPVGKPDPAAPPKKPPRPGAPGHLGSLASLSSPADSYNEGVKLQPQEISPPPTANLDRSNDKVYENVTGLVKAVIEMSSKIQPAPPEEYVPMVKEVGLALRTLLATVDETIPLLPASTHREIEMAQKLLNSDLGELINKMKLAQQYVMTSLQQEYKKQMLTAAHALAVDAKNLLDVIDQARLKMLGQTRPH
- EXPERIMENTAL_PROTOCOL: Inhibition of FAK expressed in Escherichia coli or baculovirus-infected insect cells at 400 uM by TR-FRET assay
PROPERTY_NAME: inhibition (%)

Before answering, review these 2 worked examples.
[[record]]
record_smiles = "c1cnc2[nH]ccc2c1"
assay_target = "UniProt Q05397"
property_name = "inhibition"
measure_unit = "%"
recorded_value = 3

[[record]]
record_smiles = "Nc1ccc2ncc(-c3ccccc3)n2n1"
assay_target = "UniProt Q05397"
property_name = "inhibition"
measure_unit = "%"
recorded_value = 33


[I] Nc1ncccc1OCc1ccccc1
[II] c1n[nH]c2c1CCCC2
[III] Cc1ccc(NC(=O)Nc2cccc(C(F)(F)F)c2)cc1
[IV] O=C(Nc1ccccc1)Nc1ccccc1
### Prompt Please rank these compounds by inhibition in descending order. Your reply should list the labels following the order given in the request.
### Response IV, I, III, II

[A] Nc1n[nH]c2ncccc12
[B] CC(C)(C)c1cc(NC(=O)Nc2ccccc2)no1
[C] c1ccc(Nc2ncccn2)cc1
[D] c1ccc(-c2cnc3nccnn23)cc1
### Prompt // smallest inhibition at index 0, largest at the end Your reply should list the labels following the order given in the request.
### Response D, B, A, C
(D: 0%, B: 3%, A: 7%, C: 10%)

[A] Nc1[nH]cnc2ncnc1-2
[B] c1ccc(Nc2ccccc2)cc1
[C] Nc1[nH]nc2ccccc12
### Prompt // smallest inhibition at index 0, largest at the end Your reply should list the labels following the order given in the request.
### Response B, A, C

----------
- ASSAY_TARGET: Glycogen synthase kinase-3 beta (Homo sapiens)
- EXPERIMENTAL_PROTOCOL: Inhibition of GSK3-beta expressed in Escherichia coli or baculovirus-infected insect cells using ATP as substrate at 667 uM by fluorescence polarization assay
PROPERTY_NAME: inhibition (%)

[1] Nc1ncccc1OCc1ccccc1
[2] c1ccc(-c2cnc3nccnn23)cc1
### Prompt Sorting by inhibition in descending order, would 1 or 2 appear first? Answer by quoting the chosen item's label.
### Response 1

[a] Cc1ccc(C(=O)NC2CC2)cc1F
[b] Nc1[nH]cnc2ncnc1-2
### Prompt Sorting by inhibition in descending order, would a or b appear first? Answer by quoting the chosen item's label.
### Response b
(b: 57%, a: 23%)

[I] CC(C)(C)c1cc(NC(=O)Nc2ccccc2)no1
[II] c1ccc(Nc2ncccn2)cc1
### Prompt Sorting by inhibition in descending order, would I or II appear first? Answer by quoting the chosen item's label.
### Response II
(II: 55%, I: 19%)

[P] Cc1ccc(NC(=O)Nc2cccc(C(F)(F)F)c2)cc1
[Q] Nc1ccc2ncc(-c3ccccc3)n2n1
### Prompt Of P and Q , which carries the smaller reported inhibition figure? Answer by quoting the chosen item's label.
### Response P

[1] c1cnc2[nH]ccc2c1
[2] Nc1n[nH]c2ncccc12
### Prompt Of 1 and 2 , which carries the smaller reported inhibition figure? Answer by quoting the chosen item's label.
### Response 1
(1: 21%, 2: 59%)

----------
- ASSAY_TARGET: Epidermal growth factor receptor (Homo sapiens) (UniProt P00533)
- Sequence (P00533 whole entry): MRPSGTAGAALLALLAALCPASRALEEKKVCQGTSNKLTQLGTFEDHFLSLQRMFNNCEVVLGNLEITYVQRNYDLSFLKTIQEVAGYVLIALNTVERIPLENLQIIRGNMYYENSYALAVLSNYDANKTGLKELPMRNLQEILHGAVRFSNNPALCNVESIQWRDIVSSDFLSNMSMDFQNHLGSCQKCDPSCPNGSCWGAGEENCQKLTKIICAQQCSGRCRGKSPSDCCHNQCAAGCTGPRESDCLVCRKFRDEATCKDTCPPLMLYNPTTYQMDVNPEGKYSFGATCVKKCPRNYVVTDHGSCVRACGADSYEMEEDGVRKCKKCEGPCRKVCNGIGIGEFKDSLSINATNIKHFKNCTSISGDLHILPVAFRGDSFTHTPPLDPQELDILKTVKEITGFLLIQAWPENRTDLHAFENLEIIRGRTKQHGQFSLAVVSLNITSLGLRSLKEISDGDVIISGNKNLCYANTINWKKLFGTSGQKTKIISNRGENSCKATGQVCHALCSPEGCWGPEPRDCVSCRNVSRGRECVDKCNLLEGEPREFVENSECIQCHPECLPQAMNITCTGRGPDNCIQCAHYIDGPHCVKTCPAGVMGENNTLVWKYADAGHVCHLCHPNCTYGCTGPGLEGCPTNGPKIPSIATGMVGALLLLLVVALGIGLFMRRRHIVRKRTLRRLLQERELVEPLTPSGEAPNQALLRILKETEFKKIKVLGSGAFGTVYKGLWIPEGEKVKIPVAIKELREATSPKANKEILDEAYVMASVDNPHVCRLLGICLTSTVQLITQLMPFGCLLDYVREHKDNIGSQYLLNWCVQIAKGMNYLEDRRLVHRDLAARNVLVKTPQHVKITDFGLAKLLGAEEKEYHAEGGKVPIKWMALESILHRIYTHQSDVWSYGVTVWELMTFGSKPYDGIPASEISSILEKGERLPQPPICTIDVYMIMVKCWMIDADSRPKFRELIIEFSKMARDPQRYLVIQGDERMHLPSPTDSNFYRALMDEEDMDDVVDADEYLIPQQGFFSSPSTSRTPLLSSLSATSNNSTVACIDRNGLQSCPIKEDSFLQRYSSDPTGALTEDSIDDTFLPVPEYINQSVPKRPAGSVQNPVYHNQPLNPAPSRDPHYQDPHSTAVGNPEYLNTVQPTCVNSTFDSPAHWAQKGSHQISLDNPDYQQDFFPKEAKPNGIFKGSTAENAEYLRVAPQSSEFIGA
- EXPERIMENTAL_PROTOCOL: Inhibition of EGFR expressed in Escherichia coli or baculovirus-infected insect cells at 400 uM by TR-FRET assay
PROPERTY_NAME: inhibition (%)

[A] Nc1n[nH]c2ncccc12
[B] Nc1[nH]cnc2ncnc1-2
### Prompt Sorting by inhibition in descending order, would A or B appear first? Answer by quoting the chosen item's label.
### Response A

[1] Cc1ccc(C(=O)NC2CC2)cc1F
[2] Cc1ccc(NC(=O)Nc2cc(C(C)(C)C)nn2-c2ccccc2)cc1
### Prompt Of 1 and 2 , which carries the smaller reported inhibition figure? Answer by quoting the chosen item's label.
### Response 2
(2: 0%, 1: 5%)

[I] Cc1ccc(NC(=O)Nc2cccc(C(F)(F)F)c2)cc1
[II] CC(C)(C)c1cc(NC(=O)Nc2ccccc2)no1
### Prompt Sorting by inhibition in descending order, would I or II appear first? Answer by quoting the chosen item's label.
### Response II

----------
- ASSAY_TARGET: Serine/threonine-protein kinase pim-1 (Homo sapiens) (UniProt P11309)
- Sequence (P11309 whole entry, looked up): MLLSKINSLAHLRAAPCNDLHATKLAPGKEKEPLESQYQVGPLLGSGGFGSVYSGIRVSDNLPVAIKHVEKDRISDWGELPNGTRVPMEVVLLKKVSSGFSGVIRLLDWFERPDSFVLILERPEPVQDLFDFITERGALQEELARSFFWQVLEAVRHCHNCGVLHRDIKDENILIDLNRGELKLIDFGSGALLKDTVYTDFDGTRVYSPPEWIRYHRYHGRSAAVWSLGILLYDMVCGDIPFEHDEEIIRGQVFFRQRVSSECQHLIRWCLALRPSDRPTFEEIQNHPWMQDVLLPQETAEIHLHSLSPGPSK
- EXPERIMENTAL_PROTOCOL: Inhibition of PIM1 expressed in Escherichia coli or baculovirus-infected insect cells at 400 uM by IMAP assay
PROPERTY_NAME: inhibition (%)

[I] Cc1ccc(C(=O)NC2CC2)cc1F
[II] Nc1n[nH]c2ncccc12
### Prompt Of I and II , which carries the smaller reported inhibition figure? Answer by quoting the chosen item's label.
### Response II

[A] c1cnc2[nH]ccc2c1
[B] O=C(Nc1ccccc1)Nc1ccccc1
### Prompt Sorting by inhibition in descending order, would A or B appear first? Answer by quoting the chosen item's label.
### Response B
(B: 12%, A: 6%)

[P] c1ccc(-c2cnc3nccnn23)cc1
[Q] Cc1ccc(NC(=O)Nc2cc(C(C)(C)C)nn2-c2ccccc2)cc1
[R] O=C(Nc1ccccc1)Nc1cccc(C(F)(F)F)c1
[S] CC(C)(C)c1cc(NC(=O)Nc2ccccc2)no1
### Prompt Please rank these compounds by inhibition in descending order. Your reply should list the labels following the order given in the request.
### Response P, S, R, Q
(P: 39%, S: 19%, R: 10%, Q: 1%)

----------
- ASSAY_TARGET: RAC-beta serine/threonine-protein kinase (Homo sapiens) (UniProt P31751)
- Sequence (P31751 whole entry): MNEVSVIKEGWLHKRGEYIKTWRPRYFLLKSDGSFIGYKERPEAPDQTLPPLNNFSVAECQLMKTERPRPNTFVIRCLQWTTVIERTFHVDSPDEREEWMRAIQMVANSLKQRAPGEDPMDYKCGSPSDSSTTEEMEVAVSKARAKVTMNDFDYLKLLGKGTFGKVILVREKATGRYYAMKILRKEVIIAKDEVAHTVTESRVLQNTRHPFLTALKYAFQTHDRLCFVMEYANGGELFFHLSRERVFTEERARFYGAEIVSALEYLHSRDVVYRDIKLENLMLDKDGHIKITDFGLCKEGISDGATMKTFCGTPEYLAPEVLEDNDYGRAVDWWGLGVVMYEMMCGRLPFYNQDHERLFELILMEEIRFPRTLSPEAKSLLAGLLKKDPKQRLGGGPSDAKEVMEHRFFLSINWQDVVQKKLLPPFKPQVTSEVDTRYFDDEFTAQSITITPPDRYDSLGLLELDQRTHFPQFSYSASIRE
- EXPERIMENTAL_PROTOCOL: Inhibition of AKT2 expressed in Escherichia coli or baculovirus-infected insect cells using gamma-[33P]ATP at 400 uM by scintillation proximity assay
PROPERTY_NAME: inhibition (%)

[P] Nc1ncccc1OCc1ccccc1
[Q] O=C(Nc1ccccc1)Nc1ccccc1
[R] Nc1[nH]cnc2ncnc1-2
### Prompt Order the entries above by descending inhibition. Your reply should list the labels following the order given in the request.
### Response P, Q, R

----------
- ASSAY_TARGET: Receptor-interacting serine/threonine-protein kinase 2 (Homo sapiens) (UniProt O43353)
- Sequence (O43353 whole entry): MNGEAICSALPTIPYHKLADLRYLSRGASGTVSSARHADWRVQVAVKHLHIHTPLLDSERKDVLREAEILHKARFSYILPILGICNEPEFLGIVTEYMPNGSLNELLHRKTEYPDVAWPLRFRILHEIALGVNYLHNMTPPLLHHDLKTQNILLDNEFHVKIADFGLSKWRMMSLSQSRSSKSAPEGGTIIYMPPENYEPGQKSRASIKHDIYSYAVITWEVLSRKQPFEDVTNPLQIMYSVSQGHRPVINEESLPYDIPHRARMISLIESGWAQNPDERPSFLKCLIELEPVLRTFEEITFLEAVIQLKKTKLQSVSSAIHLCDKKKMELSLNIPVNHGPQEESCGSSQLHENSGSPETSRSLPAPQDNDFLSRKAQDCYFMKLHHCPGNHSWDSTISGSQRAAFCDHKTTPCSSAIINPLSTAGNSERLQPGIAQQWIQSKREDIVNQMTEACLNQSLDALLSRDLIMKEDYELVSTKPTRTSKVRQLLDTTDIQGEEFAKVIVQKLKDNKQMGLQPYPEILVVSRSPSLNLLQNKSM
- EXPERIMENTAL_PROTOCOL: Inhibition of RIP2 expressed in Escherichia coli or baculovirus-infected insect cells at 400 uM by fluorescence polarization assay
PROPERTY_NAME: inhibition (%)

Before answering, review these 3 worked examples.
[[record]]
record_smiles = "Nc1ncccc1OCc1ccccc1"
property_name = "inhibition"
recorded_value = 94

[[record]]
record_smiles = "c1ccc(-c2cnc3nccnn23)cc1"
property_name = "inhibition"
recorded_value = 0

[[record]]
record_smiles = "Nc1[nH]nc2ccccc12"
property_name = "inhibition"
recorded_value = 11


[I] CC(C)(C)c1cc(NC(=O)Nc2ccccc2)no1
[II] c1n[nH]c2c1CCCC2
[III] O=C(Nc1ccccc1)Nc1ccccc1
[IV] Nc1[nH]cnc2ncnc1-2
### Prompt Please rank these molecules by inhibition in descending order. Your reply should list the labels following the order given in the request.
### Response IV, I, II, III
